Where do the numbers come from? From patent US8377884B2.

protocol-notes: Pharmacokinetics in normal rats after single i.v. or s.c. administration
condition-notes: male, rat, in vivo, sc, 50 nmol/kg
readout-label: half-life

INPUT: State its half-life for this compound: "CC[C@H](C)[C@@H]1NC(=O)[C@H](CCCNC(=N)N)NC(=O)[C@H](CC(=O)O)NC(=O)[C@H](CC(C)C)NC(=O)[C@H](CCCCN)NC(=O)[C@H](CC(C)C)NC(=O)CNC(=O)[C@H](Cc2ccccc2)NC(=O)[C@@H](NC(=O)CNC(=O)[C@H](CCCCN)NC(=O)[C@H](CO)NC(=O)[C@H](CC(C)C)NC(=O)CN)CSSC[C@@H](C(=O)O)NC(=O)CNC(=O)[C@H](CC(C)C)NC(=O)CNC(=O)[C@H](CO)NC(=O)[C@H](CCSC)NC(=O)[C@H](CO)NC(=O)CNC1=O"
OUTPUT: 10 min

* * *

Property: cGMP response relative to 1 uM CNP22 (%) at 0.01 µM; scope: individual compounds
target-system: NPR-B (Mus musculus, UniProt Q6VVW5)
Construct: Murine NIH3T3 cells express endogenously the CNP signaling receptor, NPR-B; endogenous in cells; host or cells: NIH3T3 (murine fibroblasts)
Sequence (Q6VVW5 17-1047): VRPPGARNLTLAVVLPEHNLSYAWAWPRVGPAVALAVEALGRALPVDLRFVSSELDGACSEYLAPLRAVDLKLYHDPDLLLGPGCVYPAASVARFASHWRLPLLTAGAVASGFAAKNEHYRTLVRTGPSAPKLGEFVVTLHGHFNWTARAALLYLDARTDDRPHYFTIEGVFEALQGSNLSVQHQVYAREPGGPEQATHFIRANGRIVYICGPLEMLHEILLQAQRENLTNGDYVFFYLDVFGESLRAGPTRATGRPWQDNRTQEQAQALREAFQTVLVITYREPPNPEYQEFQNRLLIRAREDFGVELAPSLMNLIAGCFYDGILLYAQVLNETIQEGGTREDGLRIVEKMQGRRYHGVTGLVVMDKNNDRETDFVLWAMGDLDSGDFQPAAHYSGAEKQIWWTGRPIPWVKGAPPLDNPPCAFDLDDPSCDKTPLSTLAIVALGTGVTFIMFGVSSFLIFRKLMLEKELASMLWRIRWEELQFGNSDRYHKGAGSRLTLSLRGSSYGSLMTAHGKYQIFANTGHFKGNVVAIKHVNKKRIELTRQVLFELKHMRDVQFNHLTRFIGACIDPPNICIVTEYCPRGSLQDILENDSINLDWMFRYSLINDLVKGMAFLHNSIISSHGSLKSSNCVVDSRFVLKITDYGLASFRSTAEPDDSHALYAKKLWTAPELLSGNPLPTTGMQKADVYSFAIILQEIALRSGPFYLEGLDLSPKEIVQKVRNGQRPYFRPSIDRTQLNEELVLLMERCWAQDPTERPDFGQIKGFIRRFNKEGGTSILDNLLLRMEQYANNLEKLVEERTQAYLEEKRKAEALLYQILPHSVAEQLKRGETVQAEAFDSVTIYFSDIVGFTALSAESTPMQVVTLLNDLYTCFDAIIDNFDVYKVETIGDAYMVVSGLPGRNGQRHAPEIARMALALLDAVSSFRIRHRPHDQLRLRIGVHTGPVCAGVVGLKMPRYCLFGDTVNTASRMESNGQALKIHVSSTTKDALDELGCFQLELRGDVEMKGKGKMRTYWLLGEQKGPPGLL
protocol-notes: Stimulation of cGMP production in NIH3T3 cells
Assay type: cell-based, Murine
condition-notes: NIH3T3 cells; 10 nM natriuretic peptide; normalized to cell number and cGMP production with 1 uM wtCNP22; read-out: cGMP Response rel. to 1 uM CNP22, 10 nM
Bridge positions count the residues as written; N and C are the ends. Peptide text beside a SMILES is read from it.
Number only, in %; omit the unit.

{"compound": "CC[C@H](C)[C@@H]1NC(=O)[C@H](CCCNC(=N)N)NC(=O)[C@H](CC(=O)O)NC(=O)[C@H](CC(C)C)NC(=O)[C@H](CCC(N)=O)NC(=O)[C@H](CC(C)C)NC(=O)CNC(=O)[C@H](Cc2ccccc2)NC(=O)[C@@H](NC(=O)CNC(=O)[C@H](CCCNC(=N)N)NC(=O)[C@H](CO)NC(=O)[C@H](CC(C)C)NC(=O)CN)CSSC[C@@H](C(=O)O)NC(=O)CNC(=O)[C@H](CC(C)C)NC(=O)CNC(=O)[C@H](CO)NC(=O)[C@H](CCSC)NC(=O)[C@H](CO)NC(=O)CNC1=O [BG] (H-GLSRGCFGLQLDRIGSMSGLGC-OH; disulfide 6-22)", "target-system": "NPR-B (Mus musculus, UniProt Q6VVW5)", "numeric-result": 9}

INPUT: Entry CC[C@H](C)[C@@H]1NC(=O)[C@H](CCCNC(=N)N)NC(=O)[C@H](CC(=O)O)NC(=O)[C@H](CC(C)C)NC(=O)[C@H](CCCCN)NC(=O)[C@H](CC(C)C)NC(=O)CNC(=O)[C@H](Cc2ccccc2)NC(=O)[C@@H](N)CSSC[C@@H](C(=O)O)NC(=O)CNC(=O)[C@H](CC(C)C)NC(=O)CNC(=O)[C@H](CO)NC(=O)[C@H](CCSC)NC(=O)[C@H](CO)NC(=O)CNC1=O [AX] (H-CFGLKLDRIGSMSGLGC-OH; disulfide 1-17 (inferred); N-terminus and C-terminus assumed) needs its cGMP response relative to 1 uM CNP22 (%) at 0.01 µM filled in; supply it.
OUTPUT: 18
